Molecular target: Matrix-associated proTGFβ1 (hLTBP1-proTGFβ1 and hLTBP3-proTGFβ1 complexes)
Experiment: Octet (BLI); cell average KD over ECM average KD
MEASUREMENT TYPE: G/D (fold bias) (fold)
Form entry: value (fold) — number only.

Example binders with recorded G/D (fold bias):
{"BINDER": "Ab15 (antibody, IgG1, V domains shown) VH: EVQLVESGGGVVQPGRSLRLSCAASGFTFSDYAMVWVRQAPGKGLEWVSAISGSGFTTYYADSVKGRFTISRDNSKNTLYLQMNSLRAEDTAVYYCARVSSGHWDFDYWGQGTLVTVSS VL: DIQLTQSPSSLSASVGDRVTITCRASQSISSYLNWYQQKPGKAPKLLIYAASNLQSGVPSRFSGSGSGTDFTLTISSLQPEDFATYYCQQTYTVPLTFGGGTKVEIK", "G/D (fold bias) / fold": 24.2}
{"BINDER": "Ab13 (antibody, IgG1, V domains shown) VH: EVQLLESGGGLVQPGGSLRLSCAASGFTFADYAMTWVRQAPGKGLEWVSAISSFASAIYYADSVKGRFTISRDNSKNTLYLQMNSLRAEDTAVYYCARVSSGHWDFDYWGQGTLVTVSS VL: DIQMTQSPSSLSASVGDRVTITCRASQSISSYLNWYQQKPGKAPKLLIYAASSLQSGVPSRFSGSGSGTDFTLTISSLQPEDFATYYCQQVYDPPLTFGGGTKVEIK", "G/D (fold bias) / fold": 21.7}
{"BINDER": "Ab16 (antibody, IgG1, V domains shown) VH: EVQLLESGGGLVQPGGSLRLSCAASGFTFSNYAMSWVRQAPGKGLEWVSAISGSGFTTYYADSVKGRFTISRDNSKNTLYLQMNSLRAEDTAVYYCARVSSGHWDFDYWGQGTLVTVSS VL: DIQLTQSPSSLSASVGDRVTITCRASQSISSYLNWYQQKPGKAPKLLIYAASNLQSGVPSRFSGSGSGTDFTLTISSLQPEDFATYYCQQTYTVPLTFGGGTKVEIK", "G/D (fold bias) / fold": 15.3}
{"BINDER": "Ab20 (antibody, V domains shown) VH: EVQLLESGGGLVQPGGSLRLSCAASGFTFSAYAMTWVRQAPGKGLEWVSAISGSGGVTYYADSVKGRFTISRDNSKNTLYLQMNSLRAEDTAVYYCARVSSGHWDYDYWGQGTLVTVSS VL: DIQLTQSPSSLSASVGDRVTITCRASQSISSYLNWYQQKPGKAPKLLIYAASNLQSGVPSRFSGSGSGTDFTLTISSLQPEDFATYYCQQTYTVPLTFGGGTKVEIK", "G/D (fold bias) / fold": 4.42}

Data request: Give the measured G/D (fold bias) for Ab18 (antibody, IgG1, V domains shown) VH: QVQLVESGGGVVQPGRSLRLSCAASGFTFSDYAMVWVRQAPGKGLEWVSAISGSGAATYFADSVKGRFTISRDNSKNTLYLQMNSLRAEDTAVYYCATVSSGHWDFDYWGQGTLVTVSS VL: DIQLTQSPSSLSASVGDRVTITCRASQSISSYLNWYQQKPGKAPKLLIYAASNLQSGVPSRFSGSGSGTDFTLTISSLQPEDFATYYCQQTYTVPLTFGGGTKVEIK
Data returned: 22
